Test system: 947758-054-R-J2-PDC spheroid growth, percent test/control;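 also: spheroids exposed to compounds for one week before readout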
test-details: Anticancer human tumor 947758-054-R-J2-PDC patient-derived colon adenocarcinoma cell line growth inhibition [CLK]
test-parameters: second compound 1 µM; first compound 0.0316 µM; stronger effect = lower value; spheroids with HUVEC and MSC
Recorded viability, T/C determines the label; the label ranges are lower segment: < 0.2%; middle segment: ≥ 0.2% and < 40%; upper segment: ≥ 40%

Observe how each entry below is paired with its result.
compound: C=C(F)C(=O)N1CCN(c2nc(OCC3CCCN3C)nc3c2CCN(c2cccc4cccc(Cl)c24)C3)CC1CC#N (stereo not given) + CN1CCN(c2cc(C(=O)Nc3cc4cc(-c5cnn(C)c5)ccc4cn3)ccn2)CC1
category: lower segment
//
compound: COc1ccc([C@@H](O)c2cc(-c3ncnc4cc(N5CCOCC5)ccc34)c(F)cc2Cl)nn1 + CNC(=O)c1ccc(Nc2nc(OC3CCCC3)c3c(-c4ccc5nc(C)oc5c4)c[nH]c3n2)c(OC)c1
category: upper segment

Ask: Kindly state the category for this compound: CCCS(=O)(=O)Nc1ccc(F)c(C(=O)c2c[nH]c3ncc(-c4ccc(Cl)cc4)cc23)c1F + CNC(=O)c1ccc(Nc2nc(OC3CCCC3)c3c(-c4ccc5nc(C)oc5c4)c[nH]c3n2)c(OC)c1
Reply: middle segment

Ask: Kindly state the category for this compound: O=c1[nH]cc(F)c(=O)[nH]1 + CN1CCN(c2cc(C(=O)Nc3cc4cc(-c5cnn(C)c5)ccc4cn3)ccn2)CC1
Reply: lower segment

Ask: Kindly state the category for this compound: CC(CO)NC(=O)c1cc(-c2ccc(Cl)cc2)nn(-c2cnn(C)c2)c1=O (stereo not given) + CNC(=O)c1ccc(Nc2nc(OC3CCCC3)c3c(-c4ccc5nc(C)oc5c4)c[nH]c3n2)c(OC)c1
Reply: upper segment

Ask: Kindly state the category for this compound: CCc1c2c(nc3ccc(O)cc13)-c1cc3c(c(=O)n1C2)COC(=O)[C@]3(O)CC + CN1CCN(c2cc(C(=O)Nc3cc4cc(-c5cnn(C)c5)ccc4cn3)ccn2)CC1
Reply: lower segment

Ask: Kindly state the category for this compound: CCN1CCN(Cc2ccc(Nc3ncc(F)c(-c4cc(F)c5nc(C)n(C(C)C)c5c4)n3)nc2)CC1 + CNC(=O)c1ccc(Nc2nc(OC3CCCC3)c3c(-c4ccc5nc(C)oc5c4)c[nH]c3n2)c(OC)c1
Reply: middle segment

Ask: Kindly state the category for this compound: COc1c(OCCCN2CCOCC2)ccc2c3n(c(=NC(=O)c4cnc(N)nc4)nc12)CCN3 + CN1CCN(c2cc(C(=O)Nc3cc4cc(-c5cnn(C)c5)ccc4cn3)ccn2)CC1
Reply: lower segment

Ask: Kindly state the category for this compound: CCc1c2c(nc3ccc(O)cc13)-c1cc3c(c(=O)n1C2)COC(=O)[C@]3(O)CC + CNC(=O)c1ccc(Nc2nc(OC3CCCC3)c3c(-c4ccc5nc(C)oc5c4)c[nH]c3n2)c(OC)c1
Reply: middle segment

Ask: Kindly state the category for this compound: CCN1CCN(Cc2ccc(Nc3ncc(F)c(-c4cc(F)c5nc(C)n(C(C)C)c5c4)n3)nc2)CC1 + CN1CCN(c2cc(C(=O)Nc3cc4cc(-c5cnn(C)c5)ccc4cn3)ccn2)CC1
Reply: lower segment

Ask: Kindly state the category for this compound: C#Cc1c(F)ccc2cc(O)cc(-c3ncc4c(N5CC6CCC(C5)N6)nc(OCC56CCCN5CC(F)C6)nc4c3F)c12 (stereo not given) + CNC(=O)c1ccc(Nc2nc(OC3CCCC3)c3c(-c4ccc5nc(C)oc5c4)c[nH]c3n2)c(OC)c1
Reply: upper segment

Ask: Kindly state the category for this compound: CC1(C)CCC(CN2CCN(c3ccc(C(=O)NS(=O)(=O)c4ccc(NCC5CCOCC5)c([N+](=O)[O-])c4)c(Oc4cnc5[nH]ccc5c4)c3)CC2)=C(c2ccc(Cl)cc2)C1 + CN1CCN(c2cc(C(=O)Nc3cc4cc(-c5cnn(C)c5)ccc4cn3)ccn2)CC1
Reply: lower segment

Ask: Kindly state the category for this compound: Nc1ccccc1NC(=O)c1ccc(CNC(=O)OCc2cccnc2)cc1 + CNC(=O)c1ccc(Nc2nc(OC3CCCC3)c3c(-c4ccc5nc(C)oc5c4)c[nH]c3n2)c(OC)c1
Reply: upper segment

Ask: Kindly state the category for this compound: C#Cc1c(F)ccc2cc(O)cc(-c3ncc4c(N5CC6CCC(C5)N6)nc(OCC56CCCN5CC(F)C6)nc4c3F)c12 (stereo not given) + CN1CCN(c2cc(C(=O)Nc3cc4cc(-c5cnn(C)c5)ccc4cn3)ccn2)CC1
Reply: lower segment

Ask: Kindly state the category for this compound: COC1C=CCC(C)C(C)S(=O)(=O)NC(=O)c2ccc3c(c2)N(CC2CCC21)CC1(CCCc2cc(Cl)ccc21)CO3 (stereo not given) + CN1CCN(c2cc(C(=O)Nc3cc4cc(-c5cnn(C)c5)ccc4cn3)ccn2)CC1
Reply: middle segment
